Origin of the recorded values: patent US20240158370A1

- TARGET DESC: GSPT1 (Homo sapiens, UniProt P15170+Q96SW2)
- Sequence (P15170 whole entry): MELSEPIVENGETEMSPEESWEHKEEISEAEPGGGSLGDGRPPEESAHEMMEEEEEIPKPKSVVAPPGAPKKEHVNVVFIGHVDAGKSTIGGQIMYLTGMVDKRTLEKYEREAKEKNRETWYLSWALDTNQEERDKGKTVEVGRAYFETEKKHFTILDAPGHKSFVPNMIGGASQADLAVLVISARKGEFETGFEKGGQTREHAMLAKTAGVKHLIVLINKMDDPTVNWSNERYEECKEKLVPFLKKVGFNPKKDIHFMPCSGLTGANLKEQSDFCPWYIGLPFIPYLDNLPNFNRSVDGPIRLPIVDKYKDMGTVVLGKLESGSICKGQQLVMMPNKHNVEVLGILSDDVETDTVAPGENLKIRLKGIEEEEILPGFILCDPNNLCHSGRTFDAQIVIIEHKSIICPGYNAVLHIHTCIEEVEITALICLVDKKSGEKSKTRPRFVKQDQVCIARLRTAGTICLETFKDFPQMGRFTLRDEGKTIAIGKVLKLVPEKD
- Sequence (Q96SW2 whole entry): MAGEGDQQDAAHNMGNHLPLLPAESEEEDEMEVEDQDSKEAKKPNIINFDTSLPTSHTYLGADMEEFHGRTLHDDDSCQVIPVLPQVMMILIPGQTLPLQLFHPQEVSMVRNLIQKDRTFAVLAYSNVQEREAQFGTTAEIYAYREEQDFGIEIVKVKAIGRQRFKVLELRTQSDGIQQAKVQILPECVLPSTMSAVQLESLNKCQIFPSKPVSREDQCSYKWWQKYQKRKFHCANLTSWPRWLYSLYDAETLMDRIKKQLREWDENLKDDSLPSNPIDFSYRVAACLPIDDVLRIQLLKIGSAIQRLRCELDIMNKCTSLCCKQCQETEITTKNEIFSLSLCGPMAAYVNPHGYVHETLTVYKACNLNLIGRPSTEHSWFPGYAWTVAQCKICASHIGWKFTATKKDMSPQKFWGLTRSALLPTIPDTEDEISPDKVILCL
- Sequence (Q16531 whole entry partner): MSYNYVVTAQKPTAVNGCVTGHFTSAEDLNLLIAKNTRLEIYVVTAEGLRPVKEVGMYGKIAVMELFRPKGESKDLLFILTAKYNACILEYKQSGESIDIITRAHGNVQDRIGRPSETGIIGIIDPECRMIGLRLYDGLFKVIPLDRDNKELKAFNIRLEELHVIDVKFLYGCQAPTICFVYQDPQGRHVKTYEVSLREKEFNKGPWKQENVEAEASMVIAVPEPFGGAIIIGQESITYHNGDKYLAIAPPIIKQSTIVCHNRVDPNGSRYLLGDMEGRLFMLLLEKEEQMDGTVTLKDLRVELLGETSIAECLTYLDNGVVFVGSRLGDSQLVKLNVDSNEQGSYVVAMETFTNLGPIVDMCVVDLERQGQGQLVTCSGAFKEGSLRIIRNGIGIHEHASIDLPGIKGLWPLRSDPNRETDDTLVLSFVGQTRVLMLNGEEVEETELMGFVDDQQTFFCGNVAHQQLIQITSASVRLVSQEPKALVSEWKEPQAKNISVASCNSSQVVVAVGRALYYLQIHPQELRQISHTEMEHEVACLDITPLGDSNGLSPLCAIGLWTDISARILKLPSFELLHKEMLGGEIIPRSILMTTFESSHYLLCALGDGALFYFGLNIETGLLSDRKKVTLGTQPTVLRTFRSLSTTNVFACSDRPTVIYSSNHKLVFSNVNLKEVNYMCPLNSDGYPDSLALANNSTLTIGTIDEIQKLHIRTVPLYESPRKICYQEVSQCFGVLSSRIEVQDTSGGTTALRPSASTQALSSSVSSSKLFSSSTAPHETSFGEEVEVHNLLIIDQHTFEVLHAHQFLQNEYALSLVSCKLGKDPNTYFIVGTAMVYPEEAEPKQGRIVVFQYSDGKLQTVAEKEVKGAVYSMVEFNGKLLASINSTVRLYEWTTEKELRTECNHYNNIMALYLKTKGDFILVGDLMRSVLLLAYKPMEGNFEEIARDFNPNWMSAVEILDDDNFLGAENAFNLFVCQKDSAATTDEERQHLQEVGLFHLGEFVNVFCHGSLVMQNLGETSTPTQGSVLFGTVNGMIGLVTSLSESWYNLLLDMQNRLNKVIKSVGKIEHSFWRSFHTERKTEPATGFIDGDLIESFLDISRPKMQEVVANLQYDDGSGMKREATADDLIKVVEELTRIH
- METHOD DESCRIPTION: HiBiT degradation assay, GSPT1, Procedure A
- Format: cell-based
- Parameters: HiBit-GSPT1 KI HEK293(LgBit) Cells; host or cells: HEK293(LgBit) knock-in cells
- CONDITION CONTEXT: six hours
# Lookup of reported DC50 keyed by entry

Cn1cnc(-c2ccc3c(c2)CN(C2CCC(=O)NC2=O)C3=O)c1-c1ccc2c(ccn2C)c1 (centres unmarked) : < 25 nM
Cn1ncc(-c2ccc3c(c2)CN(C2CCC(=O)NC2=O)C3=O)c1-c1cccc(C#N)n1 (centres unmarked) : ≥ 25 nM
Cn1ncc(-c2ccc3c(c2)CN(C2CCC(=O)NC2=O)C3=O)c1-c1cnn(CC(F)F)c1 (centres unmarked) : ≥ 25 nM

Incoming: Look up DC50 with GSPT1 (Homo sapiens, UniProt P15170+Q96SW2) for this compound: Cn1cnc(-c2ccc3c(c2)CN(C2CCC(=O)NC2=O)C3=O)c1-c1ccc2occc2c1 (centres unmarked)
Outgoing: < 25 nM

Incoming: Look up DC50 with GSPT1 (Homo sapiens, UniProt P15170+Q96SW2) for this compound: Cn1cnc(-c2ccc3c(c2)CN(C2CCC(=O)NC2=O)C3=O)c1-c1ccc(N2CCCCC2)nc1 (centres unmarked)
Outgoing: ≥ 25 nM

Incoming: Look up DC50 with GSPT1 (Homo sapiens, UniProt P15170+Q96SW2) for this compound: COc1ccsc1-c1c(-c2ccc3c(c2)CN(C2CCC(=O)NC2=O)C3=O)cnn1C (centres unmarked)
Outgoing: ≥ 25 nM

Incoming: Look up DC50 with GSPT1 (Homo sapiens, UniProt P15170+Q96SW2) for this compound: Cn1ncc(-c2ccc3c(c2)CN(C2CCC(=O)NC2=O)C3=O)c1-c1ccc2ccn(C)c2c1 (centres unmarked)
Outgoing: ≥ 25 nM

Incoming: Look up DC50 with GSPT1 (Homo sapiens, UniProt P15170+Q96SW2) for this compound: Cn1cnc(-c2ccc3c(c2)CN(C2CCC(=O)NC2=O)C3=O)c1-c1ccc2c(cnn2C)c1 (centres unmarked)
Outgoing: ≥ 25 nM

###

# Lookup of reported DC50 keyed by entry
- TARGET DESC: CK1α (Homo sapiens, UniProt P48729+Q96SW2)
- Construct: CSNK1A1-HiBit KI HEK293(LgBit) Cells; host or cells: HEK293(LgBit) knock-in cells
- Sequence (P48729 whole entry, one chain of several): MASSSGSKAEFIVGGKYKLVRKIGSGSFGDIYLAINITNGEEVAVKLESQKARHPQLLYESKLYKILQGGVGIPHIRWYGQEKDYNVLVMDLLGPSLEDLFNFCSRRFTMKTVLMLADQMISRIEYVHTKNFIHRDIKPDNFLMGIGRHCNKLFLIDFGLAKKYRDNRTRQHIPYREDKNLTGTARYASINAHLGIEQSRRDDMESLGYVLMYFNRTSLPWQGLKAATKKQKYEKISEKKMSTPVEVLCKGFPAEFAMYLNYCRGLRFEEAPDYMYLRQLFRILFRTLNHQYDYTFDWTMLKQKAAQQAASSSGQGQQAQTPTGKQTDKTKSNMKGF
- METHOD DESCRIPTION: HiBiT degradation assay, CK1α, Procedure A
- Assay type: cell-based
- CONDITION CONTEXT: six hours incubation

Cc1ccc(-c2c(-c3ccc4c(c3)CN(C3CCC(=O)NC3=O)C4=O)ncn2C)c(C#N)c1 (stereo not shown) [Example 244] : < 25 nM
Cc1ccc(F)cc1-c1c(-c2ccc3c(c2)CN(C2CCC(=O)NC2=O)C3=O)ncn1C (stereo not shown) [Example 237] : < 25 nM
Cn1cnc(-c2ccc3c(c2)CN(C2CCC(=O)NC2=O)C3=O)c1-c1ccc(C#N)s1 (stereo not shown) [Example 342] : ≥ 25 nM

Incoming: Look up DC50 with CK1α (Homo sapiens, UniProt P48729+Q96SW2) for this molecule: Cn1ncc(-c2ccc3c(c2)CN(C2CCC(=O)NC2=O)C3=O)c1-c1ccncc1 (stereo not shown) [Example 361]
Outgoing: < 25 nM

###

- TARGET DESC: CK1α (Homo sapiens, UniProt P48729+Q96SW2)
- Construct: CSNK1A1-HiBit KI HEK293(LgBit) Cells; host or cells: HEK293(LgBit) knock-in cells
- METHOD DESCRIPTION: HiBiT degradation assay, CK1α, Procedure A
- Assay type: cell-based
- CONDITION CONTEXT: six hours
RECORDED ENDPOINT: CK1α Ymin

Cc1ccc(-c2nc(-c3ccc4c(c3)CN(C3CCC(=O)NC3=O)C4=O)cn2C)cc1 (stereo not shown) [Example 568] : C (C = 0-10% remaining)
COc1cc(Cl)ccc1-c1nc(-c2ccc3c(c2)CN(C2CCC(=O)NC2=O)C3=O)cn1C (stereo not shown) [Example 638] : C (C = 0-10% remaining)
CC(C)n1nc(-c2ccc3c(c2)CN(C2CCC(=O)NC2=O)C3=O)nc1-c1ccccc1 (stereo not shown) [Example 553] : C (C = 0-10% remaining)

###

- TARGET DESC: CK1α (Homo sapiens, UniProt P48729+Q96SW2)
- Construct: CSNK1A1-HiBit KI HEK293(LgBit) Cells; host or cells: HEK293(LgBit) knock-in cells
- METHOD DESCRIPTION: HiBiT degradation assay, CK1α, Procedure A
- Type: cell-based
- CONDITION CONTEXT: six hours incubation
RECORDED ENDPOINT: CK1α Ymin

Cn1cnc(-c2ccc3c(c2)CN(C2CCC(=O)NC2=O)C3=O)c1-c1ccc(CO)cc1 (stereo not shown) : C (C = 0-10% remaining)
Cn1c(C(F)(F)F)nc(-c2ccc3c(c2)CN(C2CCC(=O)NC2=O)C3=O)c1-c1ccccc1 (stereo not shown) : C (C = 0-10% remaining)
Cn1cnc(-c2ccc3c(c2)CN(C2CCC(=O)NC2=O)C3=O)c1-c1cccc(O)c1 (stereo not shown) : C (C = 0-10% remaining)

###

# Lookup of reported DC50 keyed by entry
- TARGET DESC: CK1α (Homo sapiens, UniProt P48729+Q96SW2)
- Construct: CSNK1A1-HiBit KI HEK293(LgBit) Cells; host or cells: HEK293(LgBit) knock-in cells
- METHOD DESCRIPTION: HiBiT degradation assay, CK1α, Procedure A
- Type: cell-based
- CONDITION CONTEXT: six hours incubation

// worked examples, DC50 included
CN(C)C(=O)c1ccc(-c2c(-c3ccc4c(c3)CN(C3CCC(=O)NC3=O)C4=O)ncn2C)cc1 (stereo not shown) [Example 289] : ≥ 0.025 µM
Cn1cnc(-c2ccc3c(c2)CN(C2CCC(=O)NC2=O)C3=O)c1-c1cccc(C(F)(F)F)c1 (stereo not shown) [Example 280] : < 0.025 µM
CN1CCN(C(=O)c2cccc(-c3c(-c4ccc5c(c4)CN(C4CCC(=O)NC4=O)C5=O)ncn3C)c2)CC1 (stereo not shown) [Example 357] : < 0.025 µM
Cn1ncc(-c2ccc3c(c2)CN(C2CCC(=O)NC2=O)C3=O)c1-c1cc(F)cc(F)c1 (stereo not shown) [Example 178] : < 0.025 µM
Cn1ncc(-c2ccc3c(c2)CN(C2CCC(=O)NC2=O)C3=O)c1-c1ccc(-c2ccncc2)cc1 (stereo not shown) [Example 153] : < 0.025 µM
CC(C)n1cc(-c2c(-c3ccc4c(c3)CN(C3CCC(=O)NC3=O)C4=O)ncn2C)cn1 (stereo not shown) [Example 330] : < 0.025 µM
COc1c(F)cccc1-c1c(-c2ccc3c(c2)CN(C2CCC(=O)NC2=O)C3=O)cnn1C (stereo not shown) [Example 107] : < 0.025 µM
Cc1ccc(-c2c(-c3ccc4c(c3)CN(C3CCC(=O)NC3=O)C4=O)cnn2C)o1 (stereo not shown) [Example 365] : ≥ 0.025 µM

Incoming: Look up DC50 with CK1α (Homo sapiens, UniProt P48729+Q96SW2) for this compound: COc1c(Cl)cccc1-c1c(-c2ccc3c(c2)CN(C2CCC(=O)NC2=O)C3=O)ncn1C (stereo not shown) [Example 278]
Outgoing: < 0.025 µM

Incoming: Look up DC50 with CK1α (Homo sapiens, UniProt P48729+Q96SW2) for this compound: Cc1nn(C)cc1-c1c(-c2ccc3c(c2)CN(C2CCC(=O)NC2=O)C3=O)cnn1C (stereo not shown) [Example 373]
Outgoing: ≥ 0.025 µM

Incoming: Look up DC50 with CK1α (Homo sapiens, UniProt P48729+Q96SW2) for this compound: Cn1ncc(-c2ccc3c(c2)CN(C2CCC(=O)NC2=O)C3=O)c1-c1cccc(F)c1Cl (stereo not shown) [Example 108]
Outgoing: < 0.025 µM

Incoming: Look up DC50 with CK1α (Homo sapiens, UniProt P48729+Q96SW2) for this compound: COCc1ccc(-c2c(-c3ccc4c(c3)CN(C3CCC(=O)NC3=O)C4=O)cnn2C)cc1 (stereo not shown) [Example 141]
Outgoing: < 0.025 µM

Incoming: Look up DC50 with CK1α (Homo sapiens, UniProt P48729+Q96SW2) for this compound: Cn1cnc(-c2ccc3c(c2)CN(C2CCC(=O)NC2=O)C3=O)c1-c1ccccc1C#N (stereo not shown) [Example 233]
Outgoing: < 0.025 µM

Incoming: Look up DC50 with CK1α (Homo sapiens, UniProt P48729+Q96SW2) for this compound: O=C1CCC(N2Cc3cc(-c4nc[nH]c4-c4ccccc4)ccc3C2=O)C(=O)N1 (stereo not shown) [Example 13]
Outgoing: < 0.025 µM

Incoming: Look up DC50 with CK1α (Homo sapiens, UniProt P48729+Q96SW2) for this compound: Cn1cnc(-c2ccc3c(c2)CN(C2CCC(=O)NC2=O)C3=O)c1-c1ccc(-c2ccc(C#N)cc2)cc1 (stereo not shown) [Example 299]
Outgoing: < 0.025 µM

Incoming: Look up DC50 with CK1α (Homo sapiens, UniProt P48729+Q96SW2) for this compound: Cc1cccc(-c2c(-c3ccc4c(c3)CN(C3CCC(=O)NC3=O)C4=O)ncn2C)c1F (stereo not shown) [Example 171]
Outgoing: < 0.025 µM
